Values from patent US20150361138A1

# TARGET_UNDER_TEST: human KISS1R receptor (human, UniProt Q969F8 1-398)
# Sequence (Q969F8 whole entry): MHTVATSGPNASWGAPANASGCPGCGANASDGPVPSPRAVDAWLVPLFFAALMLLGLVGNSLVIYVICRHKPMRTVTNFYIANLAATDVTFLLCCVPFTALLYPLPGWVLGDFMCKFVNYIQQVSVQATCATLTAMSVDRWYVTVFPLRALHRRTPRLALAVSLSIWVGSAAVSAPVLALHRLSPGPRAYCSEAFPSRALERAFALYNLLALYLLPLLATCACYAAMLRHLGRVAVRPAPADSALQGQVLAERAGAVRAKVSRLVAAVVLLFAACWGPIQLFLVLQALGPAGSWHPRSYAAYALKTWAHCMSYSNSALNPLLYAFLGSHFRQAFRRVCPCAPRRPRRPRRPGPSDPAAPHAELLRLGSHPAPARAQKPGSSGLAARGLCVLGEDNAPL
# ASSAY_INFO: cell-based or functional assay
*1 amine or outer side, *2 acyl side, *3 side chain or, on linkers, in order; H or OH if unused. Side-chain parts run from the residue outwards. The star is where a group is joined. TTDS = 1,13-diamino-4,7,10-trioxatridecan-succinic acid spacer arm, O=C(CCC(=O)[*:2])NCCCOCCOCCOCCCN[*:1]; γGlu = O=C(O)[C@H](CCC(=O)[*:2])N[*:1]; Palmitoyl = CCCCCCCCCCCCCCCC(=O)*
ASSAY_METRIC: EC50 (nM), intracellular calcium mobilization of cells expressing human KISS1R
# value in nM; strip the unit string

Ask | In one line, give reported EC50 (nM), intracellular calcium mobilization of cells expressing human KISS1R of the entry Ac-YNK([γGlu-Palmitoyl])NSFGLRY-NH2 (also: Gly7-Leu8 peptide bond replaced by 1,4-disubstituted 1,2,3-triazole) [peptide compound C11, Ac-Tyr-Asn-Lys(γ-(N-hexadecanoyl-Glu-OH))-Asn-Ser-Phe-GlyΨ[Tz]Leu-Arg-Tyr-NH2] .
Reply | 90

Ask | Recall and state the measured EC50 (nM), intracellular calcium mobilization of cells expressing human KISS1R for Ac-YK([TTDS-γGlu-Palmitoyl])WNSFGLRY-NH2 (also: Gly7-Leu8 peptide bond replaced by 1,4-disubstituted 1,2,3-triazole) .
Reply | 0.079
